particulars: in acetonitrile, 298.15 K
quantity: solubility (mole fraction)

Entry O=C1NC23NC(=O)NC2(N1)C(=O)NC3=O (stereo unspecified) , solubility (mole fraction) reported as 2.75e-05

---

particulars: in acetonitrile, 273.15 K
quantity: solubility (mole fraction)
Answers are plain numbers.

Lookup result for O=C1NC23NC(=O)NC2(N1)C(=O)NC3=O (stereo unspecified) ; measured solubility (mole fraction): 9e-06

---

particulars: in isopropanol, 303.15 K
quantity: solubility (mole fraction)
Give bare numbers.

So, O=C1NC23NC(=O)NC2(N1)C(=O)NC3=O (stereo unspecified) ? Its solubility (mole fraction) was 0.000364

---

particulars: in water, 303.15 K
quantity: solubility (mole fraction)

// sample O=C1NC23NC(=O)NC2(N1)C(=O)NC3=O (stereo unspecified) , its solubility (mole fraction) was 0.000223

---

particulars: in 1,4-dioxane, 273.15 K
quantity: solubility (mole fraction)
Numbers only.

Documented solubility (mole fraction) of O=C1NC23NC(=O)NC2(N1)C(=O)NC3=O (stereo unspecified) : 0.000149

---

particulars: in ethylene glycol, 293.15 K
quantity: solubility (mole fraction)
One number for each entry.

Reported solubility (mole fraction) of O=C1NC23NC(=O)NC2(N1)C(=O)NC3=O (stereo unspecified) : 0.000459

---

particulars: in acetonitrile, 278.15 K
quantity: solubility (mole fraction)
Answers are plain numbers.

Memo: O=C1NC23NC(=O)NC2(N1)C(=O)NC3=O (stereo unspecified) , reported solubility (mole fraction): 1.15e-05

---

particulars: in ethyl acetate, 308.15 K
quantity: solubility (mole fraction)
Numbers only.

GET /value?item= O=C1NC23NC(=O)NC2(N1)C(=O)NC3=O (stereo unspecified) &field=solubility (mole fraction) returns 0.000225

---

particulars: in ethanol, 303.15 K
quantity: solubility (mole fraction)

Entry O=C1NC23NC(=O)NC2(N1)C(=O)NC3=O (stereo unspecified) ; solubility (mole fraction) = 0.000214

---

particulars: in methanol, 298.15 K
quantity: solubility (mole fraction)
Numbers only.

// O=C1NC23NC(=O)NC2(N1)C(=O)NC3=O (stereo unspecified) : solubility (mole fraction) value = 0.00409

---

particulars: in water, 308.15 K
quantity: solubility (mole fraction)
Give bare numbers.

So for O=C1NC23NC(=O)NC2(N1)C(=O)NC3=O (stereo unspecified) , the logged solubility (mole fraction) turned out to be 0.00025

---

particulars: in 1,4-dioxane, 278.15 K
quantity: solubility (mole fraction)
Answers are plain numbers.

Lab note: measured solubility (mole fraction) of O=C1NC23NC(=O)NC2(N1)C(=O)NC3=O (stereo unspecified) was 0.000174

---

particulars: in methanol, 303.15 K
quantity: solubility (mole fraction)
One number for each entry.

Per the record, O=C1NC23NC(=O)NC2(N1)C(=O)NC3=O (stereo unspecified) has solubility (mole fraction) of 0.0049

---

particulars: in THF, 308.15 K
quantity: solubility (mole fraction)
Numbers only.

Lookup result for O=C1NC23NC(=O)NC2(N1)C(=O)NC3=O (stereo unspecified) ; measured solubility (mole fraction): 0.00224

---

particulars: in isopropanol, 283.15 K
quantity: solubility (mole fraction)

// solubility (mole fraction) value for O=C1NC23NC(=O)NC2(N1)C(=O)NC3=O (stereo unspecified) : 0.000162

---

particulars: in ethanol, 283.15 K
quantity: solubility (mole fraction)
Answers are plain numbers.

Per the record, O=C1NC23NC(=O)NC2(N1)C(=O)NC3=O (stereo unspecified) has solubility (mole fraction) of 9.23e-05
